The entries below are paired with their reported inhibition.
- EXPERIMENTAL_SYSTEM: Histamine H2 receptor (Cavia porcellus) (UniProt P47747)
- Sequence (P47747 whole entry): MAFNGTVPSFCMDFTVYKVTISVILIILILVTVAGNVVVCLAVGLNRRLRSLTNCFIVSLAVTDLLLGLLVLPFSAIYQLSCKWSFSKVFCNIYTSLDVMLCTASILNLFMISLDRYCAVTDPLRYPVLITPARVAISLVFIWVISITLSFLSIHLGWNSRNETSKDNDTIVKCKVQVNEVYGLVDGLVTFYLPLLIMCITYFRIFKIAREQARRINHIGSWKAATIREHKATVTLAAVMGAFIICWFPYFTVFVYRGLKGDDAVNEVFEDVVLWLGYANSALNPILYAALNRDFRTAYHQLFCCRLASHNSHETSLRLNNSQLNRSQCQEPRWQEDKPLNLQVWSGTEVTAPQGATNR
- PROTOCOL_NOTES: Histamine H2 receptor antagonism in isolated guinea pig right atrium at concentration of 1*10e-6 g/mL of histamine hydrochloride
- Format: functional, tissue-based
- SETUP_CONDITIONS: Cardiac atrium
Field: numeric (%). Do not append units.

-- ask # return recorded inhibition for entry CC(=O)NCc1ccc(-c2csc(NC(=N)NCCc3ccccc3)n2)o1
-- reply 71

-- ask Name the recorded inhibition of the compound listed here: CC(=O)NCc1ccc(-c2csc(NC(=N)NCCc3cccs3)n2)o1
-- reply 83

-- ask Using known records, supply inhibition for COc1cccc(CC/N=C(\N)Nc2nc(-c3ccc(CNC(C)=O)o3)cs2)c1
-- reply 70
